Each entry below carries its reported melting point.

Solved cases (5 shown):
CC(C)(C)N1C(=O)c2nc(Cl)cc(N)c2C1=O    215 to 220 °C
CC(=O)OCn1cc(Cl)c(-c2cc(Cl)cc(Cl)c2)n1    95 °C
O=C1Nc2ccccc2C12COc1ccc(F)cc12 (centres undefined)    224 to 226 °C
CC(=O)Nc1ccc(-c2cc(C(=O)c3cc(-c4ccc(NC(C)=O)cc4)c(N4CCOCC4)s3)sc2N2CCOCC2)cc1    140 to 142 °C
[N-]=[N+]=C(C(=O)CC1CC(=O)N1)C(=O)OCc1ccc([N+](=O)[O-])cc1 (centres undefined)    114 to 116 °C

Exercise: Consider the molecule CCOC(=O)C(Cl)=Cc1cc(-n2ncc(C(F)(F)F)cc2=O)ccc1Cl . State its measured melting point.
Key: 98 to 100 °C

Exercise: Note down melting point recorded for CC(C)(CO)NS(=O)(=O)c1ccc(Cl)c(NC(=O)c2cnn3c(C(F)F)cc(-c4ccc(C(F)(F)F)cc4)nc23)c1
Key: 234 °C

Exercise: Give recorded melting point. Cc1ccc(C(NC(N)=S)c2ccccc2)cc1 (centres undefined)
Key: 167 to 168 °C
